Measured GI50 of individual entries
System: MDA-MB-231
Assay Overview: NCI tumour cell line growth inhibition, 48 h
Active and inactive are the calls of the source. Cut-off read from the data, not from the text of the source: active = GI50 up to about 1.1 µM and inactive = higher.

Use the examples below as a reference point.
Compound	GI50
CC/C=C\C/C=C\C/C=C\CCCCCCCC(=O)OC(COC(=O)CCCCCCCCCCCCCCCCC)COC1OC(CO)C(O)C(O)C1O (stereo not drawn)	> 25 µM (inactive)
O=c1cc(/N=N/c2ccc(O)cc2)[nH]c(=O)[nH]1	> 100 µM (inactive)
O=c1[nH]c2ccc(O)cc2o1	> 100 µM (inactive)
O=C(O)COc1c(Cl)cc(Cl)c2cccnc12	> 100 µM (inactive)
S=c1[nH]nc(Cc2ccccc2)c(=S)[nH]1	26.1 µM (inactive)

Task item: Could you tell me which GI50 is on file for O=C1/C(=C/c2ccccc2)CCc2ccc(Cl)nc21 ?
Reply: 15.2 µM (inactive)

Task item: // next record COc1ccc(C(OCC2OC(n3ccc(Oc4c(F)c(F)c(F)c(F)c4F)nc3=O)CC2OP(OCCC#N)N(C(C)C)C(C)C)(c2ccccc2)c2ccc(OC)cc2)cc1 (stereo not drawn)
Reply: > 100 µM (inactive)

Task item: Would you kindly repeat that for Cc1cc2c(O)c(c1)CN(CC(=O)O)Cc1cc(C)cc(c1O)CN(CC(=O)O)Cc1cc(C)cc(c1O)CN(CC(=O)O)C2 ?
Reply: > 100 µM (inactive)

Task item: # iterate: COc1ccc(/N=C2\C(=N/c3ccc(OC)cc3)N(S(=O)(=O)c3ccccc3)C(=S)N2c2ccccc2)cc1
Reply: > 100 µM (inactive)

Task item: // repeat for CC1(C)OC[C@@H](O)[C@H](C#N)CO1 and report
Reply: > 100 µM (inactive)

Task item: Lookup O=C(c1ccccc1)N(CCCCNC(=O)C(F)(F)F)CCCNC(=O)C(F)(F)F
Reply: > 100 µM (inactive)

====

System: LOX IMVI
Assay Overview: NCI tumour cell line growth inhibition, 48 h
Activity calls are given as the source filed them. Rule as the data show it: active = GI50 up to about 1.1 µM and inactive = higher.
Please reply with one of these outcomes: active, inactive

// below: answered molecules
                                   molecule  category_label
0    CCC/C(Cl)=N\OC(=O)Nc1ccc(OC(F)(F)F)cc1        inactive
1                       NNC1=NC(=O)NC(=O)C1        inactive
2  O=c1c(-c2nc3ccccc3c3ccccc3c2=O)nc2ccccc2c2ccccc12        inactive
3  O=C1C=CC(=O)c2c(O)c(N3CCN(c4ccccn4)CC3)cc(O)c21        inactive
4  CC(C)NCCCNc1c2ccccc2nc2cccc([N+](=O)[O-])c12          active

Task item: Field: outcome | Entry: O=C(c1ccccc1)c1c2ccccn2c2cccc[n+]12
Reply: inactive

Task item: Moving on to the next molecule: Cc1cc2c(cc1C)[n+]([O-])c(C(F)(F)F)c(C(=O)c1ccccc1)[n+]2[O-]
Reply: inactive

====

Catalogue of GI50 readings, one per entry.
Test system: HCC 2998
Assay Overview: NCI tumour cell line growth inhibition, 48 h
Activity calls are given as the source filed them. Cut-off read from the data, not from the text of the source: active = GI50 up to about 1.1 µM and inactive = higher.

Examples from the recorded data:
                                   compound      endpoint_result
0  CCCCCCCCCCCCCCCCCCNc1nc(=O)n(C2CC(O)C(COP(=O)(O)OCC3OC(n4ccc(N)nc4=O)C(O)C3O)O2)cc1F (stereo unspecified)   11.8 µM (inactive)
1  Cc1c(/C=N/NC(=S)Nc2ccccc2)c(=O)n(-c2ccccc2)n1C  > 100 µM (inactive)

Task item: Endpoint output: GI50 of NC(=O)NC(=O)c1cccc(NC(=O)CCl)c1 . Value?
Reply: 0.764 µM (active)

Task item: Please do the same for C=C1NC(=O)C(CC(C(=O)C(=O)Nc2c(C)cccc2C(C)(C)C)C(=O)c2ccc3ccccc3c2)C(=O)N1 (stereo unspecified) as well.
Reply: > 100 µM (inactive)
